Measured values drawn from PubChem BioAssay (EPA / NIEHS) for this set.

- Read-out: Macrophage colony-stimulating factor (MCSF), CSF1 (gene 1435)
- test-protocol: BSK_CASM3C_MCSF: BioMAP Diversity Plus: CASM3C Assay for Macrophage colony-stimulating factor (MCSF) Biomarker Activity (AID 2283044);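 also: M-CSF protein amount quantified by ELISA after 24 h exposure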
- run-parameters: primary human coronary artery smooth muscle cells; actives raise or lower the signal
Activity calls are given as the source filed them. The calls were made as follows: active = hit-call score of the fitted dose curve at least 0.9, where 1 is the maximum; inactive = score below 0.9.
assay-endpoint: outcome

For orientation, consider the following solved cases.
molecule	outcome
c1ccc2cc3ccccc3cc2c1	inactive
Cc1cccc(O)c1C	inactive
OCC(CO)(CO)CO	inactive
c1ccc(C(O[C@@H]2CCCN(CCc3ccc4c(c3)OCO4)C2)c2ccccc2)cc1	inactive
CCCCOC(=O)c1ccccc1	inactive
Cc1nccn1-c1ccc(Sc2cccc(C3(C(N)=O)CCOCC3)c2)cc1	inactive

# input Consider the molecule "Cc1nc(-c2ccccn2)ncc1C(=O)Nn1cc(C)c2cc(F)ccc21" . State its measured outcome.
# output inactive

# input Name the recorded outcome of the item "OC(CCl)CCl" in your answer.
# output inactive

# input Write down outcome measured for item "CCCCCCOC(=O)CC(CC(=O)OCCCCCC)(OC(=O)CCC)C(=O)OCCCCCC"
# output inactive

# input Determine from records and report outcome for "O=C(O)c1ccc2c(c1)nc(C(=O)NC1CCN(C3CC3)CC1)n2Cc1cc(-c2ccc(Cl)s2)on1"
# output inactive

# input Identify the reported outcome for the following entry. "CCCc1ccccc1"
# output inactive

# input State, in one line, measured outcome of "CC[C@H](C)C(=O)O[C@H]1C[C@H](O)C=C2C=C[C@H](C)[C@H](CC[C@@H](O)C[C@@H](O)CC(=O)O)[C@H]21"
# output inactive

# input Write down outcome measured for item CC(C)CC(C)O (stereo not drawn)
# output inactive

* * *

- Read-out: Cytochrome P450 (CYP1A1), CYP1A1 (gene 1543)
- test-protocol: LTEA_HepaRG_CYP1A1: Life Technologies and Expression Analysis (LTEA) Assay for Cytochrome P450 (CYP1A1) using HepaRG (AID 2283454)
- run-parameters: mRNA level, 48 h; actives raise or lower the signal
The source made the active and inactive calls. Rule for the calls: active = hit-call score of the fitted dose curve at least 0.9, where 1 is the maximum; inactive = score below 0.9.
Would you mind answering with one of these outcomes? active, inactive

compound	qualitative-label
Cc1nccn1-c1ccc(Sc2cccc(C3(C(N)=O)CCOCC3)c2)cc1	inactive
C[C@@H](Oc1ccc(CNC(=O)c2cccnc2Oc2ccc3c(c2)OCO3)c(F)c1)C(=O)O	inactive
NC(=O)N(O)[C@@H]1COc2cc(OCc3ccccc3)ccc21	active
Cc1nc(-c2ccccn2)ncc1C(=O)Nn1cc(C)c2cc(F)ccc21	active
CCCCCCCCN(C)C	inactive

# input Called result for "CCCCCCOC(=O)CC(CC(=O)OCCCCCC)(OC(=O)CCC)C(=O)OCCCCCC"
# output inactive

# input I would be grateful if you could indicate the recorded call for "C[C@]12C=CC(=O)C=C1CC[C@H]1[C@@H]3C[C@@H](O)[C@](O)(C(=O)CO)[C@@]3(C)C[C@H](O)[C@@]12F" .
# output active

# input Recorded call for CC(C)CCCCCCOC(=O)C1CCCCC1C(=O)OCCCCCCC(C)C (stereo not drawn) ?
# output active

# input Write down the call the test reported for this compound. Item: "O=S(=O)(O)c1ccc(N=Nc2c(O)ccc3cc(S(=O)(=O)O)ccc23)cc1"
# output active

# input Field: outcome | Entry: "C=CCc1cc(S(=O)(=O)c2ccc(O)c(CC=C)c2)ccc1O"
# output inactive

# input Hello, I am checking results. What call was entered for "NC(N)=O" ?
# output active

# input For "O=C(NO)C1(NS(=O)(=O)c2ccc(Oc3ccc(F)cc3)cc2)CCOCC1" , what call appears in the results of this test?
# output inactive

# input Write down the call the test reported for this compound. Item: "CCOC(N)=O"
# output active

* * *

- test-protocol: CEETOX_H295R_ESTRONE: CeeTox H295R High-throughput Steroidogenesis Assay for Estrone (AID 2283441);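 also: estrone secreted into medium measured by LC-MS/MS after dansyl derivatization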
- run-parameters: actives raise or lower the signal
Active and inactive are the calls of the source. How the source made its calls: active means hit-call score of the fitted dose curve at least 0.9, where 1 is the maximum; inactive means score below 0.9.
Hi there, use one of these labels in your reply, thanks! true (1) (active), false (0) (inactive)

compound	qualitative-label
c1ccc2c(c1)-c1cccc3c1c-2cc1ccccc13	false (0)
CCCCCCCC1CCC(=O)O1 (stereo unspecified)	false (0)
CCn1nc(C)c2c1C(=O)NCC(c1ccc(O)cc1)=N2	true (1)
OCc1c[nH]c2ccccc12	false (0)

# input GET /call?item= "Cc1ncc([C@@H](CCCCCCc2ccc3c(n2)NCCC3)CC(=O)O)cn1" returns the recorded outcome of this test.
# output false (0)

# input Each compound tested received a call. Report the one for "C=CCc1cc(S(=O)(=O)c2ccc(O)c(CC=C)c2)ccc1O" .
# output false (0)

* * *

- test-protocol: BSK_BE3C_SRB: Viability Assessment in the BioMAP Diversity Plus: BE3C Assay (AID 2283028);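 as to AC50: fitted both ways so AC50 may mark signal gain or loss versus DMSO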
- run-parameters: primary human bronchial epithelial cells
Activity calls are given as the source filed them. How the source made its calls: active means hit-call score of the fitted dose curve at least 0.9, where 1 is the maximum; inactive means score below 0.9.
assay-endpoint: AC50

smiles-structure	AC50
O=C1CN(N=Cc2ccc([N+](=O)[O-])o2)C(=O)N1	inactive
O=S1(=O)CCCO1	inactive
c1ccc2cc3ccccc3cc2c1	inactive
OCCOCCOCCO	inactive
FC(F)(F)C(F)(F)C(F)(F)C(F)(F)C(F)(F)C(F)(F)I	inactive

# input Name the recorded AC50 of the molecule listed here: "C=CCc1cc(S(=O)(=O)c2ccc(O)c(CC=C)c2)ccc1O"
# output 15.8 µM (active)

# input Please look at this molecule and report its AC50: "c1ccc2ncccc2c1"
# output inactive

# input Quick one: give measured AC50 for "C[C@@H](Oc1ccc(CNC(=O)c2cccnc2Oc2ccc3c(c2)OCO3)c(F)c1)C(=O)O"
# output inactive

# input Provide measured AC50 value, entry: "NC(N)=O"
# output inactive

* * *

- target-under-test: Adra2b (gene 24174) (UniProt P19328)
- Sequence (P19328 whole entry, looked up): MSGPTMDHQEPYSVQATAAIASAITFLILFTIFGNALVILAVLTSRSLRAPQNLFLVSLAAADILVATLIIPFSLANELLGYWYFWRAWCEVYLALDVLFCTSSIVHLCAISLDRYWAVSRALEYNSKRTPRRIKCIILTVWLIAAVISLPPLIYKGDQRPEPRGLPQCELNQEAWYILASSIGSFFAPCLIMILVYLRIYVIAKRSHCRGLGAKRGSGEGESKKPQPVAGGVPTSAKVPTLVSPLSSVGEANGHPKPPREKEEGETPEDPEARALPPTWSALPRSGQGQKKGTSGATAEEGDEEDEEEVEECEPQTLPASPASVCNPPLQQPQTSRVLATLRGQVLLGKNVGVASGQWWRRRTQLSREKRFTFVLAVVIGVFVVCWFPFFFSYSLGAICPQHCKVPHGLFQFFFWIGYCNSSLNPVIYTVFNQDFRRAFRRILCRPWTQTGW
- test-protocol: NVS_GPCR_rmAdra2B: NovaScreen (NVS) G Protein-Coupled Receptor Assay for hybird cells Adrenergic, Alpha 2B Receptor (Adra2B) (AID 2283306)
Inconclusive results are not listed. Activity calls are given as the source filed them. How the source made its calls: active means hit-call score of the fitted dose curve at least 0.9, where 1 is the maximum; inconclusive means response in the unintended direction; inactive means score below 0.9.
Thanks in advance; please answer with one of these: active, inactive

Study these solved cases before continuing.
smiles-structure	qualitative-label
CCCCCCCCCC	inactive
O=C(O)c1ccc2c(c1)nc(C(=O)NC1CCN(C3CC3)CC1)n2Cc1cc(-c2ccc(Cl)s2)on1	active
Cc1nccn1-c1ccc(Sc2cccc(C3(C(N)=O)CCOCC3)c2)cc1	active

# input Assay result, entry "CCCCCCCCN(C)C" — outcome?
# output inactive

* * *

- target-under-test: Cellular tumor antigen p53 (Homo sapiens)
- test-protocol: ATG_p53_CIS: Attagene CIS-FACTORIAL HepG2 Assay for human p53 Transcription Factor (AID 2282994)
- run-parameters: HepG2 p53 cis-element reporter, Attagene mRNA; actives raise or lower the signal
- Description: ATG_CIS is a cell-based, multiplexed-readout assay that uses HepG2, a human liver cell line, with measurements taken at 24 hours after chemical dosing in a 24-well plate.ATG_p53_CIS is one of 52 assay component(s) measured or calculated from the ATG_CIS assay. […] This assay endpoint, ATG_p53_CIS, was analyzed with bidirectional fitting relative to DMSO as the negative control and baseline of activity. […]
The source made the active and inactive calls. The calls were made as follows: active = hit-call score of the fitted dose curve at least 0.9, where 1 is the maximum; inactive = score below 0.9.
Would you mind answering with one of these outcomes? 1.0 (active), 0.0 (inactive)

compound	target-under-test	qualitative-label
O=C(N[C@H](CO)[C@H](O)c1ccc([N+](=O)[O-])cc1)C(Cl)Cl	Cellular tumor antigen p53 (Homo sapiens)	0.0
O=C(O)c1cccc(C[C@@H]2COc3ccc(OCc4nc5cc(F)ccc5s4)cc3[C@@H]2O)c1	Cellular tumor antigen p53 (Homo sapiens)	0.0
CCCCOC(=O)c1ccccc1	Cellular tumor antigen p53 (Homo sapiens)	0.0
O=C1CN(N=Cc2ccc([N+](=O)[O-])o2)C(=O)N1	Cellular tumor antigen p53 (Homo sapiens)	0.0
C=CN1CCCC1=O	Cellular tumor antigen p53 (Homo sapiens)	0.0
C[Si](C)(C)C(F)(F)C(F)(F)C(F)(F)F	Cellular tumor antigen p53 (Homo sapiens)	0.0
CCN(CC)C(=S)SSC(=S)N(CC)CC	Cellular tumor antigen p53 (Homo sapiens)	1.0
FC(F)C(F)(F)COCC1CO1 (stereo not given)	Cellular tumor antigen p53 (Homo sapiens)	0.0
C[C@]12C=CC(=O)C=C1CC[C@H]1[C@@H]3C[C@@H](O)[C@](O)(C(=O)CO)[C@@]3(C)C[C@H](O)[C@@]12F	Cellular tumor antigen p53 (Homo sapiens)	0.0
S=P(N1CC1)(N1CC1)N1CC1	Cellular tumor antigen p53 (Homo sapiens)	0.0

# input Which outcome was assigned to "CCCCCCCC/C=C\CCCCCCCC(=O)OC[C@@H](O)[C@H]1OC[C@H](O)[C@H]1O" in this test?
# output 0.0

# input Entry "Cn1cc[nH]c1=S" : call = ?
# output 0.0

# input Query: recorded result category for "OC(CCl)CCl" in this test
# output 0.0

# input Just curious, what result did "FC(F)(F)COC(OCC(F)(F)F)OCC(F)(F)F" get here?
# output 0.0

# input Called result for "CCCCCCCCCCCCCCO"
# output 0.0
